- Tested on: NCI-H1341 complex spheroids, percent test/control
- EXPERIMENT_DESCRIPTION: Anticancer human tumor NCI-H1341 cell line growth inhibition [AhR];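 note: spheroids exposed to agents for seven days before readout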
- CONDITION_DETAILS: curve of first compound; second compound 10 µM
// reported IC50 per item

COc1cc(Nc2ncc3c(n2)-c2ccc(Cl)cc2C(c2c(F)cccc2OC)=NC3)ccc1C(=O)O + CC(CO)NC(=O)c1cc(-c2ccc(Cl)cc2)nn(-c2cnn(C)c2)c1=O | < 31.6 nM
COc1ccc([C@@H](O)c2cc(-c3ncnc4cc(N5CCOCC5)ccc34)c(F)cc2Cl)nn1 + Cc1ccccc1N=Nc1ccc(NC(=O)c2ccnn2C)c(C)c1 | < 31.6 nM
CCc1c2c(nc3ccc(O)cc13)-c1cc3c(c(=O)n1C2)COC(=O)[C@]3(O)CC + CC(CO)NC(=O)c1cc(-c2ccc(Cl)cc2)nn(-c2cnn(C)c2)c1=O | 3.47 nM
CC1(C)CCC(CN2CCN(c3ccc(C(=O)NS(=O)(=O)c4ccc(NCC5CCOCC5)c([N+](=O)[O-])c4)c(Oc4cnc5[nH]ccc5c4)c3)CC2)=C(c2ccc(Cl)cc2)C1 + Cc1ccccc1N=Nc1ccc(NC(=O)c2ccnn2C)c(C)c1 | < 31.6 nM
CC(C)c1c(-c2ccccc2)nc2c(C#N)c[nH]n2c1=O + Cc1ccccc1N=Nc1ccc(NC(=O)c2ccnn2C)c(C)c1 | < 31.6 nM

For the compound COc1cc(C2c3cc4c(cc3C(OC3OC5COC(C)OC5C(O)C3O)C3COC(=O)C23)OCO4)cc(OC)c1O (stereo unspecified) + CC(CO)NC(=O)c1cc(-c2ccc(Cl)cc2)nn(-c2cnn(C)c2)c1=O , what IC50 is on record? 135 nM
